Recorded values, source patent US20170204102A1.

Test system: Pectobacterium carotovorum SCC1
protocol: Inhibition of soft rot lesion in cucumber leaf
Format: in vivo
condition: 1 ppm, Table 7, control 100

compound	Area of lesion, %
O=C1C2CCCN2C(=O)C2CCCN12 (stereo not drawn) [Compound No. 31]	95
CSC(=O)c1cccc2nnsc12 [BTH, reference compound]	90
CC1NC(=O)C2CCCN2C1=O (stereo not drawn) [Compound No. 25]	78
